- target.under.test: T1, orthogonal hCD122 receptor (hoRb), hCD122 with H133D and Y134F (human, UniProt P14784 27-550)
- T1 sequence: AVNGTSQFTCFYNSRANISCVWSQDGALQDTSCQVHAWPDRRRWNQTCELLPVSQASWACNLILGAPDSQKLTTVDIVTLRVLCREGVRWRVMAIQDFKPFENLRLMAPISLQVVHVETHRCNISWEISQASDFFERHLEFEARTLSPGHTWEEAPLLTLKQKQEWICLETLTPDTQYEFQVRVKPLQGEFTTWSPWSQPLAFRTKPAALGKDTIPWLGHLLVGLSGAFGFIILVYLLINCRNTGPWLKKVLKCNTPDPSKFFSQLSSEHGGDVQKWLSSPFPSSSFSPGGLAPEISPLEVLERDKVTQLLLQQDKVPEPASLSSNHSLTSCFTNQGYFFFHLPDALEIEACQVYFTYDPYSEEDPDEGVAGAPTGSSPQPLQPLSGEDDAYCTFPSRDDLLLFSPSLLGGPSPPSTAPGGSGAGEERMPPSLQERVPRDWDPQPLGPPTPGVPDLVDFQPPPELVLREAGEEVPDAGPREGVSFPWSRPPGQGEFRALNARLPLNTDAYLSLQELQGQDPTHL
- test.details: cell-based or functional assay
Please respond with reported 3F8 Ortho Proliferation Signal 1:2 for every item in the list.
Hi! Could you send only the number? It should be in cts/min, unit omitted.

Data request: For the binder shown here, T3Q, SQVLKA (ligand) APQSSSTKKTQLQLSQLLVLLKAILNGINNYKNPKLTRMLTFKFYMPKKATELKHLQCLEEELKPLEEVLNLAQSKNFHLRPRDLISNINVIVLELKGSETTFMCEYADETATIVEFLNRWITFCQSIISTLT , give the reported 3F8 Ortho Proliferation Signal 1:2.
Data returned: 39200

Data request: Using the record for T3C, SQVLKA (ligand) APCSSSTKKTQLQLSQLLVLLKAILNGINNYKNPKLTRMLTFKFYMPKKATELKHLQCLEEELKPLEEVLNLAQSKNFHLRPRDLISNINVIVLELKGSETTFMCEYADETATIVEFLNRWITFCQSIISTLT , report its 3F8 Ortho Proliferation Signal 1:2.
Data returned: 33100

Data request: I have this binder here, SQVLKQ (ligand) APTSSSTKKTQLQLSQLLVLLKQILNGINNYKNPKLTRMLTFKFYMPKKATELKHLQCLEEELKPLEEVLNLAQSKNFHLRPRDLISNINVIVLELKGSETTFMCEYADETATIVEFLNRWITFCQSIISTLT , and I need its recorded 3F8 Ortho Proliferation Signal 1:2.
Data returned: 45700

Data request: Query (binder): L18D, SQVLKA (ligand) APTSSSTKKTQLQLSQLDVLLKAILNGINNYKNPKLTRMLTFKFYMPKKATELKHLQCLEEELKPLEEVLNLAQSKNFHLRPRDLISNINVIVLELKGSETTFMCEYADETATIVEFLNRWITFCQSIISTLT ; field requested: 3F8 Ortho Proliferation Signal 1:2
Data returned: 44000

Data request: What does the data say about its 3F8 Ortho Proliferation Signal 1:2? Entry: L18G, SQVLKA (ligand) APTSSSTKKTQLQLSQLGVLLKAILNGINNYKNPKLTRMLTFKFYMPKKATELKHLQCLEEELKPLEEVLNLAQSKNFHLRPRDLISNINVIVLELKGSETTFMCEYADETATIVEFLNRWITFCQSIISTLT
Data returned: 37700

Data request: Look up 3F8 Ortho Proliferation Signal 1:2: L18M, SQVLKA (ligand) APTSSSTKKTQLQLSQLMVLLKAILNGINNYKNPKLTRMLTFKFYMPKKATELKHLQCLEEELKPLEEVLNLAQSKNFHLRPRDLISNINVIVLELKGSETTFMCEYADETATIVEFLNRWITFCQSIISTLT
Data returned: 42000

Data request: Returns the measured 3F8 Ortho Proliferation Signal 1:2 for the input binder. Input: Q126K, SQVLKA (ligand) APTSSSTKKTQLQLSQLLVLLKAILNGINNYKNPKLTRMLTFKFYMPKKATELKHLQCLEEELKPLEEVLNLAQSKNFHLRPRDLISNINVIVLELKGSETTFMCEYADETATIVEFLNRWITFCKSIISTLT
Data returned: 2720
